Values from the supplement of paper PMC3334620

# system: Zap1 (UniProt P47043)
# Sequence: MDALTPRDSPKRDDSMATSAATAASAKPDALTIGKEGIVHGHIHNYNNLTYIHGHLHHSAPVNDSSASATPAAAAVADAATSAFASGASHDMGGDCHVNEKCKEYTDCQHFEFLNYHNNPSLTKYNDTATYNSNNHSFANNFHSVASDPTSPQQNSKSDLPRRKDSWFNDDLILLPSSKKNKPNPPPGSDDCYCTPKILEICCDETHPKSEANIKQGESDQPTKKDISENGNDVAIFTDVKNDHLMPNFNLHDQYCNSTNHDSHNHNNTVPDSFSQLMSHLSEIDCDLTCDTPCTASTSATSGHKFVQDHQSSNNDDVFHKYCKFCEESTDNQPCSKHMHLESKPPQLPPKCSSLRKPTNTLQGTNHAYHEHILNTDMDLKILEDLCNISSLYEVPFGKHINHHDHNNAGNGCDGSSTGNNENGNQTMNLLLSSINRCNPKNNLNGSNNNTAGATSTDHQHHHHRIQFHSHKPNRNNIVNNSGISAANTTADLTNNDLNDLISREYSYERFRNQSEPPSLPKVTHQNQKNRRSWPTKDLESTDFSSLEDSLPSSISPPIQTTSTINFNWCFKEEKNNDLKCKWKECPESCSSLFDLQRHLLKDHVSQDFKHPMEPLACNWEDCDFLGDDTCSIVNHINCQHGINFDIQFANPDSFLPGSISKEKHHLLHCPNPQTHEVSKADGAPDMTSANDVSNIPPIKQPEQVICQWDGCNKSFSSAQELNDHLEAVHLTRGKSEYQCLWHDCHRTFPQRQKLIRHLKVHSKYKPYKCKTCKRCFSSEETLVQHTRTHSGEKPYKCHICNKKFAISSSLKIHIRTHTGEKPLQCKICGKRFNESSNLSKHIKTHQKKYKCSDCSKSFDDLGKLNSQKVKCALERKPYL
# assay info: PBM E-score (8-mer binding enrichment) (E-score (-0.5 to 0.5)); higher = stronger / more preferred TF binding
# stated conditions: protein concentration: 200 nM; construct: GST-full length
Over roughly 33,000 sequences, “E-score (-0.5 to 0.5)” has its median near -0.021; the highest 2% begin near 0.32. The full list was thinned out, with the highest values kept by preference.
Label label 1 for high-side PBM E-score (at or above 0.1) and label 0 for low-side PBM E-score (below it).

{"columns": ["input sequence", "answer label"],
 "data": [
  ["CCACATCG", "label 0"],
  ["ACTCTGCA", "label 0"],
  ["GGCACGTA", "label 0"],
  ["AAAATAAC", "label 1"],
  ["TCTAACCA", "label 1"],
  ["GAAATAAC", "label 1"],
  ["CCTCTGAC", "label 1"],
  ["GAACCTAA", "label 1"],
  ["CATAACCA", "label 1"],
  ["CATAACTA", "label 1"],
  ["ACGGGTCA", "label 1"],
  ["AACTAATA", "label 1"],
  ["AATGACTA", "label 0"],
  ["CCGGGTCA", "label 1"],
  ["CTGGCCCA", "label 0"],
  ["GGGGGTCA", "label 0"],
  ["AATGACGT", "label 0"],
  ["AGAAGCTA", "label 0"],
  ["CGGGGTCA", "label 1"],
  ["CGGCTCGA", "label 0"],
  ["ACGTAAGG", "label 0"]
]}
